Experiment: Growth inhibition of human BE(2)-C cells after 72 hrs y MTT assay
Format: functional
Recorded GI50, one value per entry.

// solved cases for GI50 follow
INSERT INTO measurements (compound, metric, reported_value) VALUES
  ('O=C1O[C@H](OCCCOP(=O)(O)O)[C@@H]2[C@H]1[C@H]1CC[C@@H]2O1', 'GI50', '67 µM'),
  ('CCCCCCCCO[C@H]1OC(=O)[C@H]2[C@@H]1[C@@H]1CC[C@H]2O1', 'GI50', '51 µM');

Item under review: O=C1OC(=O)C2C3CCC(O3)C12 (stereo not drawn) . Reported GI50?
36 µM
